System: KOPN-8 (B-Lymphoblastic Leukemia)
Assay: combination Emax (second highest fraction inhibited in the dose matrix, 72 h); higher = more inhibition; extreme values may be limits of the assay
measured_metric: combination Emax
Please reply with the value in numeric form only.

Example results:
compound	reading
CN(CCO)CC[C@H](CSc1ccccc1)Nc1ccc(S(=O)(=O)NC(=O)c2ccc(N3CCC([C@@H](O)c4ccccc4-c4ccc(Cl)cc4)CC3)cc2)cc1S(=O)(=O)C(F)(F)F [AZD4320] + Cc1cc2ncnn2cc1Nc1ncc2c(n1)n(C1CCOCC1)c(=O)n2C [AZD7648] (first compound max 1 µM, 7x7, partner max 10 µM)	0.88
COc1cccc(OCCCN)c1-c1cc(Nc2cnc(C#N)cn2)n[nH]1 [Prexasertib] + O=C(c1cc(Cc2n[nH]c(=O)c3ccccc23)ccc1F)N1CCN(C(=O)C2CC2)CC1 [Olaparib] (first compound max 1 µM, 7x7, partner max 10 µM)	0.961

The measured combination Emax associated with CN(C)CCCOc1ccc(-c2ccc3ncc4c(c3c2)n(C2CCOCC2)c(=O)n4C)cn1 [AZD0156] + O=C(c1cc(Cc2n[nH]c(=O)c3ccccc23)ccc1F)N1CCN(C(=O)C2CC2)CC1 [Olaparib] (first compound max 3 µM, partner max 3 µM) reads 0.78

###

System: KGN (Other Solid Carcinomas);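 further: after 72 h of two-drug dosing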
Assay: Bliss excess, mean over the matrix (fraction); higher = more synergy
measured_metric: Bliss excess
Please reply with the value in numeric form only.

Example results:
compound	Bliss excess
Cc1cc2ncnn2cc1Nc1ncc2c(n1)n(C1CCOCC1)c(=O)n2C [AZD7648] + C[C@@H]1COCCN1C2=NC(=NC(=C2)C3(CC3)[S@](=N)(=O)C)C4=C5C=CNC5=NC=C4 [AZD6738] (first compound max 10 µM, 7x7, partner max 10 µM)	0.0439
N#Cc1cnc(Nc2cc(NC[C@H]3CNCCO3)c(C(F)(F)F)cn2)cn1 [SRA737] + Nc1ccn([C@@H]2O[C@H](CO)[C@@H](O)C2(F)F)c(=O)n1 [Gemcitabine] (first compound max 10 µM, 7x7, partner max 0.3 µM)	0.0342
COc1cc2ncnc(Nc3ccc(F)c(Cl)c3)c2cc1OCCCN1CCOCC1 [Gefitinib] + CC(C)n1c(=O)n(C)c2cnc3cc(F)c(-c4ccc(OCCCN5CCCCC5)nc4)cc3c21 [AZD1390] (first compound max 10 µM, 7x7, partner max 0.3 µM)	-0.0632
N#Cc1cnc(Nc2cc(NC[C@H]3CNCCO3)c(C(F)(F)F)cn2)cn1 [SRA737] + C=CCn1c(=O)c2cnc(Nc3ccc(N4CCN(C)CC4)cc3)nc2n1-c1cccc(C(C)(C)O)n1 [AZD1775] (first compound max 10 µM, partner max 1 µM)	0.0807
CN(CCO)CC[C@H](CSc1ccccc1)Nc1ccc(S(=O)(=O)NC(=O)c2ccc(N3CCC([C@@H](O)c4ccccc4-c4ccc(Cl)cc4)CC3)cc2)cc1S(=O)(=O)C(F)(F)F [AZD4320] + Cn1cnc2c(F)c(Nc3ccc(Br)cc3Cl)c(C(=O)NOCCO)cc21 [Selumetinib] (first compound max 1 µM, 7x7, partner max 3 µM)	0.0113

Kindly note: KGN (Other Solid Carcinomas), CC1(C)CCC(CN2CCN(c3ccc(C(=O)NS(=O)(=O)c4ccc(NCC5CCOCC5)c([N+](=O)[O-])c4)c(Oc4cnc5[nH]ccc5c4)c3)CC2)=C(c2ccc(Cl)cc2)C1 [Venetoclax] + CN(C)CCCOc1ccc(-c2ccc3ncc4c(c3c2)n(C2CCOCC2)c(=O)n4C)cn1 [AZD0156] (first compound max 1 µM, 7x7, partner max 1 µM) , Bliss excess value reported: -0.0172

Kindly note: KGN (Other Solid Carcinomas), COc1cccc(OCCCN)c1-c1cc(Nc2cnc(C#N)cn2)n[nH]1 [Prexasertib] + C[C@@H]1COCCN1C2=NC(=NC(=C2)C3(CC3)[S@](=N)(=O)C)C4=C5C=CNC5=NC=C4 [AZD6738] (first compound max 1 µM, 7x7, partner max 10 µM) , Bliss excess value reported: -0.0399

Kindly note: KGN (Other Solid Carcinomas), Cc1c2c(nn1C)CSCc1cc(n(C)n1)CSc1cc(c3ccccc3c1)OCCCc1c(C(=O)O)n(C)c3c-2c(Cl)ccc13 [AZD5991] + Nc1ccn([C@@H]2O[C@H](CO)[C@@H](O)C2(F)F)c(=O)n1 [Gemcitabine] (first compound max 1 µM, 7x7, partner max 0.3 µM) , Bliss excess value reported: -0.0457
